B1: FBXO3 (parent)
chain: HDPLWRRHCKKYWLISEEEKTQKN

Variants of: B1
Procedure Text: protein stability index of a GFP-peptide fusion (GPS, HEK-293T) (PSI 1-6); higher = more stable;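 note: lentivirally expressed fusions sorted by FACS into six bins by GFP to DsRed ratio, PSI derived from sequencing read proportions per bin multiplied by bin number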
Measurement Context: c terminus: a fixed tail appended
Rule: protein stability index under 3 gives Condition not met, otherwise Condition met.

{"Variant Descriptor": "N24A", "Class Assignment": "Condition not met"}
{"Variant Descriptor": "C9T", "Class Assignment": "Condition met"}
{"Variant Descriptor": "L14T", "Class Assignment": "Condition met"}
{"Variant Descriptor": "R6N", "Class Assignment": "Condition met"}
{"Variant Descriptor": "Y12W", "Class Assignment": "Condition met"}
{"Variant Descriptor": "E17K", "Class Assignment": "Condition met"}
{"Variant Descriptor": "H1F", "Class Assignment": "Condition not met"}
{"Variant Descriptor": "R7L", "Class Assignment": "Condition met"}
{"Variant Descriptor": "Q22I", "Class Assignment": "Condition not met"}
{"Variant Descriptor": "S16W", "Class Assignment": "Condition not met"}
{"Variant Descriptor": "R6C", "Class Assignment": "Condition met"}
{"Variant Descriptor": "P3Q", "Class Assignment": "Condition met"}
{"Variant Descriptor": "K11A", "Class Assignment": "Condition met"}
{"Variant Descriptor": "W13F", "Class Assignment": "Condition met"}
{"Variant Descriptor": "K10F", "Class Assignment": "Condition not met"}
{"Variant Descriptor": "H1R", "Class Assignment": "Condition not met"}
{"Variant Descriptor": "R7Y", "Class Assignment": "Condition not met"}
{"Variant Descriptor": "E19W", "Class Assignment": "Condition not met"}
{"Variant Descriptor": "W5Q", "Class Assignment": "Condition met"}
{"Variant Descriptor": "D2S", "Class Assignment": "Condition not met"}
{"Variant Descriptor": "L14M", "Class Assignment": "Condition met"}
{"Variant Descriptor": "Y12V", "Class Assignment": "Condition met"}
{"Variant Descriptor": "Q22L", "Class Assignment": "Condition not met"}
{"Variant Descriptor": "K10D", "Class Assignment": "Condition met"}
{"Variant Descriptor": "L4P", "Class Assignment": "Condition met"}
{"Variant Descriptor": "C9M", "Class Assignment": "Condition not met"}
{"Variant Descriptor": "C9Q", "Class Assignment": "Condition met"}
{"Variant Descriptor": "R6G", "Class Assignment": "Condition met"}
